target.or.test.system: human KDR (human, UniProt P35968 20-1356)
Sequence (P35968 20-1356): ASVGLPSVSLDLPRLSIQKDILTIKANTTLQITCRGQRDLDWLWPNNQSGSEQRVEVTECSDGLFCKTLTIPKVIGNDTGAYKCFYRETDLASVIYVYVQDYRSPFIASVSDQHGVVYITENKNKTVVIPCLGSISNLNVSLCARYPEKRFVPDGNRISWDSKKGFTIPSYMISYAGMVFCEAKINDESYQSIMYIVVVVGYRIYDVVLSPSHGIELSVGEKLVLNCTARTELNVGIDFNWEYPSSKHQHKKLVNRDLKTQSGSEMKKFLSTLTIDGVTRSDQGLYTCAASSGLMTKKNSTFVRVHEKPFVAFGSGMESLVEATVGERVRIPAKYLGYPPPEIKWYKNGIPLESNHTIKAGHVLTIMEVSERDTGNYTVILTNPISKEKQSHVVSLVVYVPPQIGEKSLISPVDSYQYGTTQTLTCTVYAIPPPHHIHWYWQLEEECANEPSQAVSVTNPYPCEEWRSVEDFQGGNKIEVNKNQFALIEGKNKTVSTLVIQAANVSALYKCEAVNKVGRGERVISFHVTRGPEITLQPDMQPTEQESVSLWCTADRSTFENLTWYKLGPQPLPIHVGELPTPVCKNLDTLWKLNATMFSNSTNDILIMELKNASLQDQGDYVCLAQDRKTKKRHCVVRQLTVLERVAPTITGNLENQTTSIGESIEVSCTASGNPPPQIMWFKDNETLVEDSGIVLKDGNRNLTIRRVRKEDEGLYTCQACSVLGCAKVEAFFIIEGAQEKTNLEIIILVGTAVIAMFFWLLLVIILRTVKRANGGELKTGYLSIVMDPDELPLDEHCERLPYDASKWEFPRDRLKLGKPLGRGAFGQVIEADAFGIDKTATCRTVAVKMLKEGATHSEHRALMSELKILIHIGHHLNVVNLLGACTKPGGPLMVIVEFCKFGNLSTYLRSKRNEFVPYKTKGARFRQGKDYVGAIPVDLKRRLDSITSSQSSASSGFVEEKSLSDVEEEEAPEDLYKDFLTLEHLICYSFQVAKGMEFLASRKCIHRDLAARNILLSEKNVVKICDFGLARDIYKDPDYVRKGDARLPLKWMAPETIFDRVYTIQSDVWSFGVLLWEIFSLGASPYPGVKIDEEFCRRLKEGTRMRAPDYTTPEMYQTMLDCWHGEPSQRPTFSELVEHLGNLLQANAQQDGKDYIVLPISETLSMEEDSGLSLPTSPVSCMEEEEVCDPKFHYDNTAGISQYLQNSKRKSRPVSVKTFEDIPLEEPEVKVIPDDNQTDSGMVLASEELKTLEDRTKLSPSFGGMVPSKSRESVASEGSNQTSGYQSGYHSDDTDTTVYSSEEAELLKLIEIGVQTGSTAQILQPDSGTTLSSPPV
assay.name: cell-based or functional assay
Criterion: KDR tyrosine phosphorylation in HUVEC, EC50 (nM), N = 2 strictly less than 3 nM. Met: fulfilled. Not met: not fulfilled.

As a guide, the following entries are already answered.
33E1 (antibody, V domains shown, Fully human monoclonal antibody from a XenoMouse hybridoma (IgG2 or IgG4 strain), purified) VH: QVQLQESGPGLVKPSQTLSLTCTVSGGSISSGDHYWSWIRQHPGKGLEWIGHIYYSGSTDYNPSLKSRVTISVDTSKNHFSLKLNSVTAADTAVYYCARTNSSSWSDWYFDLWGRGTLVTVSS VL: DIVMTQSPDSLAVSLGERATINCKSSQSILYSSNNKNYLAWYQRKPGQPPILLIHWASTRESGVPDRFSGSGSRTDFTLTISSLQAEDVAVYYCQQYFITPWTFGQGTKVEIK; not fulfilled
24B3 (antibody, V domains shown, Fully human monoclonal antibody from a XenoMouse hybridoma (IgG2 or IgG4 strain), purified) VH: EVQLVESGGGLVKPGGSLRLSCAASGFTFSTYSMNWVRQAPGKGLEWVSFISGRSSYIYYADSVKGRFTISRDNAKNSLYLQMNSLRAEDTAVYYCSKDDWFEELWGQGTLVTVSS VL: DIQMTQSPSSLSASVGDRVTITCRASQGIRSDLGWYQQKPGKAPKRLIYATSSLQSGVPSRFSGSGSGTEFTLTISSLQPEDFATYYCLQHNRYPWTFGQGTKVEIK; fulfilled
27A3 (antibody, V domains shown, Fully human monoclonal antibody from a XenoMouse hybridoma (IgG2 or IgG4 strain), purified) VH: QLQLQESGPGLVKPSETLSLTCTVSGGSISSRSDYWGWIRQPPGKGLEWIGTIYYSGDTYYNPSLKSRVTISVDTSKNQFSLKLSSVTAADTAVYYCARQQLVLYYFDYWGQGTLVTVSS VL: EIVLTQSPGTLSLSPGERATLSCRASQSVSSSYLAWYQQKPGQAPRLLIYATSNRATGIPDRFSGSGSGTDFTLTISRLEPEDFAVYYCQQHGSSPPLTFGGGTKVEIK; fulfilled
22B8 (antibody, V domains shown, Fully human monoclonal antibody from a XenoMouse hybridoma (IgG2 or IgG4 strain), purified) VH: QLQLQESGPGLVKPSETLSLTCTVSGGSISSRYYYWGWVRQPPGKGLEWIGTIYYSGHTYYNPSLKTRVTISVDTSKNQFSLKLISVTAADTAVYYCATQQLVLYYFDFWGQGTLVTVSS VL: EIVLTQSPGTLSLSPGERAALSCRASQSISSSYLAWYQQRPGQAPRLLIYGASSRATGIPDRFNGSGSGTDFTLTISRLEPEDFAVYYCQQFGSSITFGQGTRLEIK; not fulfilled
32F4 (antibody, V domains shown, Fully human monoclonal antibody from a XenoMouse hybridoma (IgG2 or IgG4 strain), purified) VH: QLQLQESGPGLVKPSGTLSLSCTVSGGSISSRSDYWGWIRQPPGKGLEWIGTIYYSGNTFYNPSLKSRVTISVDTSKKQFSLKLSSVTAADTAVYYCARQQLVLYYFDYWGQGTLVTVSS VL: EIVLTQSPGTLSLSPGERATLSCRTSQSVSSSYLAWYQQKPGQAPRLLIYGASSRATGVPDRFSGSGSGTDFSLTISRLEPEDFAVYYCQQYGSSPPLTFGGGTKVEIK; fulfilled
32G7 (antibody, V domains shown, Fully human monoclonal antibody from a XenoMouse hybridoma (IgG2 or IgG4 strain), purified) VH: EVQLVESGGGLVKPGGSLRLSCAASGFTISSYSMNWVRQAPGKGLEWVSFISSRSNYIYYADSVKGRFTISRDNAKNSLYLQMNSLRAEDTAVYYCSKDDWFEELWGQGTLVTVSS VL: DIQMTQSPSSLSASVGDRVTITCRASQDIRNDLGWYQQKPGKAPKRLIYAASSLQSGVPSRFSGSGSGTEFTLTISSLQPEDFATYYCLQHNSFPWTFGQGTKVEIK; fulfilled
29H3 (antibody, V domains shown, Fully human monoclonal antibody from a XenoMouse hybridoma (IgG2 or IgG4 strain), purified) VH: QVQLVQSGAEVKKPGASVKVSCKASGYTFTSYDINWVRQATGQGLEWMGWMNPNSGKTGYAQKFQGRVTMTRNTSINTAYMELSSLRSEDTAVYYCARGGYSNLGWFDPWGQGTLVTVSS VL: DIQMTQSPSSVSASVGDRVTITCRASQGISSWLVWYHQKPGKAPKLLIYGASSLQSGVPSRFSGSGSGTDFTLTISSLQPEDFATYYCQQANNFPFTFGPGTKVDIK; fulfilled
33C3 (antibody, V domains shown, Fully human monoclonal antibody from a XenoMouse hybridoma (IgG2 or IgG4 strain), purified) VH: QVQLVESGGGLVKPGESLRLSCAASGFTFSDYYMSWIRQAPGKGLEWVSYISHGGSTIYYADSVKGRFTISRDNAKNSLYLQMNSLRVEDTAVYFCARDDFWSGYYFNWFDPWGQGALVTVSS VL: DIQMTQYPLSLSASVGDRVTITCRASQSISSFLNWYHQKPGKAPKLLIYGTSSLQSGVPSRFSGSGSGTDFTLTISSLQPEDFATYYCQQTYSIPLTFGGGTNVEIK; fulfilled

Quick check: does 21H6 (antibody, V domains shown, Fully human monoclonal antibody from a XenoMouse hybridoma, purified) VH: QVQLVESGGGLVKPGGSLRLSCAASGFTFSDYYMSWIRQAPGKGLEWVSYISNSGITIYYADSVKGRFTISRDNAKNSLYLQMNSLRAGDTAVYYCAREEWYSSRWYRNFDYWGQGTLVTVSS VL: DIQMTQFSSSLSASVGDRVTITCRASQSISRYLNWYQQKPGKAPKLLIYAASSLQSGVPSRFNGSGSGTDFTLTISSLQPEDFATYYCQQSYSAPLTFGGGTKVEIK have KDR tyrosine phosphorylation in HUVEC, EC50 (nM), N = 2 under 3 nM? not fulfilled
